- test_method_notes: qHTS assay to identify small molecule antagonists of the estrogen receptor alpha (ER-alpha) signaling pathway - cell viability counter screen (AID 743074);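 also: HEK293 cells carrying ER-alpha-UAS-bla reporter stimulated with 17beta-estradiol; nearly all actives have a fitted effect of over 45% in size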
- measurement_parameters: ERalpha-bla HEK293 viability, CellTiter-Glo luminescence, 18 h; series mostly up to 69.4 µM
Inconclusive results are not listed. Active and inactive are the calls of the source. Calls follow the shape of the full dose curve. Positions of bridges follow the written chain, without caps; N, C: chain ends. Non-standard residues stand in square brackets, D forms with d. Residues, ends and D or L forms follow the SMILES beside them. *: point of attachment. X2 = CC[C@H](C)CCCCC(=O)*; Dab = NCC[C@H](N)C(=O)O
recorded_endpoint: outcome

COC(=O)CC[C@H](N)C(=O)O ... inactive
CC[C@H](C)CCCCC(=O)N[C@@H](CCN)C(=O)N[C@H](C(=O)N[C@@H](CCN)C(=O)N[C@H]1CCNC(=O)[C@H]([C@@H](C)O)NC(=O)[C@H](CCN)NC(=O)[C@H](CCN)NC(=O)[C@H](CC(C)C)NC(=O)[C@@H](CC(C)C)NC(=O)[C@H](CCN)NC1=O)[C@@H](C)O (X2-[Dab]T[Dab][Dab][Dab][dL]L[Dab][Dab]T; lactam 4-C) ... inactive
CC[C@@]1(O)C(=O)OCc2c1cc1n(c2=O)Cc2cc3c([N+](=O)[O-])cccc3nc2-1 ... inactive

====

- test_method_notes: qHTS assay to identify small molecule antagonists of the estrogen receptor alpha (ER-alpha) signaling pathway using the BG1 cell line - cell viability counter screen (AID 743081);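 also: compound given together with 17beta-estradiol as the ER stimulus; nearly all actives have a fitted effect of over 45% in size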
- measurement_parameters: BG1Luc4E2 viability, CellTiter-Fluor, 22 h; series mostly up to 70.3 µM
Inconclusive results are not listed. The source made the active and inactive calls. Calls follow the shape of the dose curve; as a rule, active = well fitted cell-killing curve with a large enough effect in the repeat runs; inconclusive = weak or mixed curves, or effect the other way; inactive = flat fitted curve, though single readings scatter.
Output constraint: value belongs to active, inactive

These recorded examples may help you get a feel for the data.
NCCCC[C@H](N)C(=O)O ... inactive
CC(C)C[C@H](NC(=O)[C@@H](Cc1c[nH]c2ccccc12)NC(=O)[C@H](Cc1ccc(O)cc1)NC(=O)[C@H](CO)NC(=O)[C@H](Cc1c[nH]c2ccccc12)NC(=O)[C@H](Cc1cnc[nH]1)NC(=O)[C@@H]1CCC(=O)N1)C(=O)N[C@@H](CCCN=C(N)N)C(=O)N1CCC[C@@H]1C(=O)NCC(N)=O ... inactive
CC1=C(/C=C/C(C)=C/C=C/C(C)=C/C=C/C=C(C)/C=C/C=C(C)/C=C/C2=C(C)C[C@@H](O)CC2(C)C)C(C)(C)C[C@H](O)C1 ... inactive
CC(CN(C)C)CN1c2ccccc2Sc2ccc(C(F)(F)F)cc21 (configuration not stated) ... inactive
Cc1ncc(C[n+]2csc(CCOP(=O)(O)OP(=O)(O)O)c2C)c(N)n1 ... inactive
CC(=O)Nc1c(I)c(C(=O)N[C@H]2C(O)O[C@H](CO)[C@@H](O)[C@@H]2O)c(I)c(N(C)C(C)=O)c1I (some centres not stated) ... inactive

// switching to the query compound
-- ask What classification did CO[C@H]1C[C@@H]2CC[C@@H](C)[C@@](O)(O2)C(=O)C(=O)N2CCCC[C@H]2C(=O)O[C@H]([C@H](C)C[C@@H]2CC[C@@H](OCCO)[C@H](OC)C2)CC(=O)[C@H](C)/C=C(\C)[C@@H](O)[C@@H](OC)C(=O)[C@H](C)C[C@H](C)/C=C/C=C/C=C/1C end up with in this test?
-- reply active
